Target: Glutamate NMDA receptor; Grin1/Grin2c (Rattus norvegicus) (UniProt P35439+Q00961)
Assay: Positive allosteric modulation of recombinant rat GluN1a/GluN2C receptor expressed in Xenopus laevis oocytes assessed as increase in glycine/L-glutamate-induced channel current at 30 uM by two-electrode voltage clamp method relative to control
Assay type: cell-based
Entries and their %max values follow.

molecule | %max (%)
COc1ccc(OCC2c3ccccc3CCN2C(=O)c2cccc(Cl)c2)cc1 (stereo not drawn) | 260
COc1ccc(OC[C@H]2c3cccn3CCN2C(=O)c2cccc(C(F)(F)F)c2)cc1 | 460
COc1ccc(OCC2c3ccc(OC(C)C)cc3CC(=O)N2Cc2cccc(Cl)c2)cc1 (stereo not drawn) | 350
COc1ccc(OCC2c3occc3CCN2C(=O)c2cccc(Cl)c2)cc1 (stereo not drawn) | 340
COc1ccc(OCC2c3ccc(OC)cc3CC(=O)N2CCCN(C)C)cc1 (stereo not drawn) | 110
COc1ccc(OC[C@H]2c3cccn3CCN2C(=O)c2cccc(Cl)c2)cc1 | 410
COc1ccc(OCC2c3ccsc3CCN2C(=O)c2cccc(Cl)c2)cc1 (stereo not drawn) | 330
COc1ccc(OCC2c3ccc(OC(C)C)cc3CC(=O)N2Cc2cccc(F)c2)cc1 (stereo not drawn) | 320
